Data provenance: the supplement of paper PMC9170038

tested on: MS2 coat protein; assay: apparent KD of MS2 coat protein; higher = weaker reporter binding; conditions: Eterna round: R107; input ligand: theophylline 2 mM
Decision: apparent KD of MS2 coat protein compared against 40 nM; not below it gives Fulfilled, below it gives Not fulfilled.

Polymer sequence: CCGUUUUAUGGCGACAUAGGGCGGACUGAAGGAGCGGUAAAACAGCCAGGUAGGUCGCAGAGAUCCACAUGAGGAUCACCCAUGU [!0.aC]
Group: Fulfilled
//
Polymer sequence: GCUUGGGUCGCAAGGCCCUGGCGUUGCGAUACCAGCACGGUAACGUGCCCUUGGCAGCGCACAUGAGGAUCACCCAUGUGGUGCG [#1 Exclusion - Theophylline A Attempt #22 (HarryS)]
Group: Fulfilled
//
Polymer sequence: GGUGGCGUGACGGAUACCAGCCACCGCGGCAACGCAACAUGAGGAUCACCCAUGUUGGGUGGCCCUUGGCAGCUGUCGUGCGGCG [#1 Same State - Theophylline B Attempt #23 (HarryS)]
Group: Not fulfilled
//
Polymer sequence: GUGUGGAGCUCGGCCGCCACUCAAACAUGAGGAUCACCCAUGUAAAACAUGAGGAUCACCCAUGUGAGGACCGGGAGAAACACGA [Exclusion Tryptophan B GF8]
Group: Fulfilled
//
Polymer sequence: AACGUAUACAGAAGGAGCGUGAAAUAAGUAAAUUAAUAAUAAACAUGAGGAUCACCCAUGUCACAGGUAGGUCGCUGUAUUCGUA [JR_ExcArginiB_Sub017]
Group: Not fulfilled

----------
tested on: MS2 coat protein; test: apparent KD of MS2 coat protein; designed switch direction (-1 OFF switch, 1 ON switch): -1; higher = weaker reporter binding; settings: input ligand: none
Class definitions on apparent KD of MS2 coat protein: zone 1 = under 20 nM, zone 2 = from 20 nM up to 80 nM, zone 3 = 80 nM and over

Polymer sequence: GACCAGGAAGGAUAUACAUACGGUUCGUGCCUUGGGCUGCGACAUGAGGAUCACCCAUGUAGAAGGUCCAGGUC [EX2 B.18] (Eterna round: R97, puzzle: Exclusion 2)
Group: zone 1
//
Polymer sequence: GUGAGUAGUCAGGAUAUGCUGUACAAAAGUACAGCAGAAGGGAUUACAUGAGGAUCACCCAUGUUUACUUCGUG [Omei Ex6 B3] (Eterna round: R97, puzzle: Exclusion 6)
Group: zone 2
//
Polymer sequence: UAACGGGUUUCUUCGUUUACAACAUGAGGAUCACCCAUGUUUGAGGAUAUCCACUAAGCUCUUCAGGAGAAGGCAAACAUAAUG [Teanarxe] (Eterna round: R96, puzzle: Exclusion NG 3)
Group: zone 1
//
Polymer sequence: UGAUCACAUGAGGAUCACCCAUGUCAGGAUAUCGUCACUGGAGCUUCGGCUCCAGUGACGAGAAGGGACAUAAU [E1/3-A1] (Eterna round: R97, puzzle: Exclusion 1)
Group: zone 3
//
Polymer sequence: AAUUUGCAAGCGAGAUCCCACAUGAGGAUCACCCAUGUGCUCGUCUUAUAAGGUACUGUGACGAGAGUCACGGUACC [Mat - Sensor, turn-off var - Eli Mod - D91] (Eterna round: R97, puzzle: Sensor, turn-off variant 1)
Group: zone 1
//
Polymer sequence: GCAAAAUAUCAGGAUAUGACUUUUUGCGUUAAGUCAGAAGGGAUAACAUGAGGAUCACCCAUGUGAUAUAGUGU [JR_Ex6_Sub031] (Eterna round: R97, puzzle: Exclusion 6)
Group: zone 3
//
Polymer sequence: ACAUGAGGAUCACCCAUGUCUGGCUGGUCUGUUCCGGCUGUCGAGGAUAUAGUCCGGUGUUCGCGCUAGAAGGUGAGGGCUGGA [Aenatbe mod 44] (Eterna round: R96, puzzle: Exclusion NG 3)
Group: zone 3
//
Polymer sequence: AUCAGCUCGUGAGGAUAUACAUGCGUGCUUCGGCACGAAUUUAAGAUCACAUGAGGAUCACCCAUGUAGAAGGUACGAGCUGAU [ENG2/3-C3] (Eterna round: R96, puzzle: Exclusion NG 2)
Group: zone 3
//
Polymer sequence: CGGGCCGGCCUUCCGGCCGGCCCGACAUGAGGAUCACCCAUGUAGGAUAUCCCGGCUGCCGGCCGGGAGAAGGACAUGCGCCCG [-45.9, -45.9 kcal, 17% A] (Eterna round: R96, puzzle: Exclusion NG 3)
Group: zone 2
//
Polymer sequence: AUCUGCACGCUGCGGUCCUACAUGAGGAUCACCCAUGUGGUCUGGUGGCGUGGGUCGCCGGACUUGGCUCGUCUUGA [salish99_S_TOV1_R5_043] (Eterna round: R97, puzzle: Sensor, turn-off variant 1)
Group: zone 1
//
Polymer sequence: UGAUUGUUUACCAGGUUAUACAUGAGGAUCACCCAUGUAGAUCCUACGUGCGCGUUGUUCCGCUCGUCUUAUUGCCA [Sensor-V1 #80] (Eterna round: R97, puzzle: Sensor, turn-off variant 1)
Group: zone 2
//
Polymer sequence: ACAAAGGACAUGAGGAUCACCCAUGUGGUGCACAAGUCCAGCAAGGAUAUCCAAGUCCCAUAAACGGAGAAGGUGCAUAAUAAG [Inesxeed] (Eterna round: R96, puzzle: Exclusion NG 3)
Group: zone 3
//
Polymer sequence: GCAAGCUUUUUGGUUUUCAACAUGAGGAUCACCCAUGUUCGUCUUGUGCUCGGGCUUGGGCGGUGUCCGGGUUUGGG [Default title] (Eterna round: R97, puzzle: Sensor, turn-off variant 1)
Group: zone 2
//
Polymer sequence: UACAUGAGGAUCACCCAUGUUUUGUCGUGUAUGGUAUUUAUCUAGGAUAUCAUUUAAUUUAGUUAUGAGAAGGAGAAUAUUAAU [JMF's solution 85] (Eterna round: R96, puzzle: Exclusion NG 3)
Group: zone 2
//
Polymer sequence: AACAGUCUAGAGGAUAUGCUGGAUGAAUAUCUGGCAGAAGGCUGGACAUGAGGAUCACCCAUGUAAAUACUACC [Omei Ex6 A1c] (Eterna round: R97, puzzle: Exclusion 6)
Group: zone 2
//
Polymer sequence: GUACUGACAGGAUAUACAUGAGGAUCACCCAUGUGCCUUAAUGCUACAAAAGUAGCAAGUAGAAGGGUCUGUAC [Omei Ex3 Model Bachelor's Dilema v11] (Eterna round: R97, puzzle: Exclusion 3)
Group: zone 1

----------
test system: MS2 coat protein; test: apparent KD of MS2 coat protein; higher = weaker reporter binding; conditions: Eterna round: R107; input ligand: theophylline 20 uM
Where apparent KD of MS2 coat protein equals or exceeds 30 nM, the correct label is true (1); where it does not, the label is false (0).

Polymer sequence: GAUAUGGAAACAUGUCAGAUCCUUACCGGUCGAGGACCGGUACGGCCGCCACUCGAAAAUAAUAAACAUGAGGAUCACCCAUGUA [Ex Tryptophan A 16]
Group: false (0)

Polymer sequence: GUAAGAGUAGGAAGGAGCGCUUUACAUGAGGAUCACCCAUGUGUGCCCUCAAUUUCGGUAAAGCAGGUAGGUCGCCUAAACUUGC [Tiqurabi]
Group: true (1)

Polymer sequence: ACAUGAGGAUCACCCAUGUGUGUAAGUUCUCGAGGACCGGUACGGCCGCCACUCGAACGAGUGUAACGUUAUACUUAGUAUAAUG [SS Trp A s4]
Group: false (0)

Polymer sequence: AGGGAAUGAAUAGAAUGAGAUGACACAGAAGGAGCGCCGAUUAAGGCAGGUAGGUCGCUGACAACAUGAGGAUCACCCAUGUUAA [#11 Same State - Arginine A]
Group: false (0)

Polymer sequence: GUAGCUAUCGCGGCCGCCACUAAACCGGAAACGGAACAGGAGGAUCACCCUUGUGGCGAAAGCCAUAGGACCGGGCGAUAGCUAC [TryBS - Double Magnet system]
Group: true (1)

Polymer sequence: UUUUUCGCGGGUGAUACCAGCAGAGUUGUACUGGUCUGGUACAUGAGGAUCACCCAUGUUUGCCCUUGGCAGCGCUCGGGAGAAG [#23 Exclusion-TheophyllineB]
Group: true (1)

Polymer sequence: UCCACAUGAGGAUCACCCAUGUAAUCAGAUACCAGUGACGAAAGUCACCCUUGGCAGCUGAUUACUUUAGUUCGAGGGUGUUUGA [EThA NP+V+V2 #4 Same Structure]
Group: true (1)

Polymer sequence: GUUGGAUACUCGGCCGCCACUGAGAGAGUCAUGUGAACAUGAGGAUCACCCAUGUAAUAUAUAUACAGGACCGGGAGUGUUGUAA [4.I]
Group: true (1)

Polymer sequence: UGACAUUGCUCAGAUACCAGACAUGAGCAUCAGCCAUGUGCCAACAAGUACAAAAUAAAUGUCCCUUGGCAGCUGAGCAAUGUCU [TheoBX 23 #MS2Left #AlternativeMS2 #Theo22]
Group: false (0)

Polymer sequence: AAGACAUGAGGAUCACCCAUGUGUCAUGAAGGAGCGUCGGAAAUGACAGGUAGGUCGCAUGACCGUUGGCGCCGGAAACGGCGCA [SSAA #15]
Group: true (1)

Polymer sequence: AUCGUACCUGAUGAUACCAGCAUGUGAUCAUAACAUGAGGAUCACCCAUGUAAUCAGUGAUGCCCUUGGCAGCAUGAUCGGUACA [Same State - Theophylline B (Freestyle 13)]
Group: true (1)

Polymer sequence: AGAGUCAGACAAAAGUCUGGCUCAACCGAAGGAGCGUCCGAAAGGACAGGUAGGUCGCGGUUACCUGAGGAUCACCCGGGUUCCU [ArgAS 9 #OpenEnded #AlternativeMS2]
Group: true (1)

Polymer sequence: GCACCAGGUACGGAUACCAGAGCAAGCCAAAUGAGUGACCAUGAGGAUCACCCAUGGUUGCUCCCUUGGCAGCCGUACCUGGUGC [ETB NP+V+V2 #13 Diff Apt, +-Same Structure]
Group: false (0)

Polymer sequence: UUCUUUAAGUCGGCCGCCACUGAAACAUGAGGAUCACCCAUGUAAAUUUGGGAGUAGUUAUAUUACAGGACCGGGACUAUAGUAA [JR_ExcTryptoB_Sub020]
Group: true (1)

Polymer sequence: AUUAAUAAUAUGUAGACGGCGGAGACGAGACGAGGACCGGUACGGCCGCCACUCGUGUUAGUUAACAUGAGGAUCACCCAUGUUA [#10 Tryptophan A Same State]
Group: false (0)

Polymer sequence: AGCCUAUUACAUGAGGAUCACCCAUGUGAUACCAGUCAGGAAACUGACCCUUGGCAGCGCAUGAGGAUCACCCAUGCGCUAGGCA [Omei Theo A Exc A v5]
Group: false (0)

Polymer sequence: AGAGCAUUGACGGCCGCCACUCAUGUCACAUGAGGAUCACCCAUGUGAUGGGUAAUCGCCCGGUUGAGGACCGGGUCAAUGCUCA [Omei Tryp SS B v3]
Group: false (0)

Polymer sequence: ACAACAUGAGGCGAUACCAGAGGCAACAUGAGGAUCACCCAUGUUCACCCAUGUGAUCACCUCCCUUGGCAGCGCACAUGAGGAU [Same State - Theophylline B #1]
Group: false (0)

Polymer sequence: GGACGAAGUUUCUUGUCCGGUCGCUGAGAAGGAGCGCGGUAAACCGCAGGUAGGUCGCUCAGAAAUACAUGAGGAUCACCCAUGU [Orsosous]
Group: false (0)

Polymer sequence: UAUAUAUUGAUGGAUACCAGCAGAGAAAACGUUUAUCCUAACAUGAGGAUCACCCAUGUAUGCCCUUGGCAGCUGUUGAUAUAUA [8.K]
Group: false (0)

Polymer sequence: ACGCUGAUUGAUUACAAUCAGCGAAAAGAUACCAGUGGGUAAUCCCACCCUUGGCAGCUUAAAUAUGAGGAUCACCCAUAUGGUA [TheoAS 18 #MS2Right #BothOrNeither #AlternativeMS2]
Group: true (1)

Polymer sequence: UUAAUUAUUGAAUCGUAUUGGUAUUAAGAACGAGGACCGGUACGGCCGCCACUCGUGAUAUACAUGAGGAUCACCCAUGUUAGCA [JR_Nu_SSTryptoA_Sub022]
Group: false (0)
